Tested on: K. pneumoniae
procedure-summary: Disc antimicrobial susceptibility test (BD BBL Sensi-Disc)
Type: cell-based, Klebsiella pneumoniae
Parameters: key: Susceptible; Intermediate; Resistant
condition-label: 24 h
property-label: antimicrobial susceptibility

[[record]]
molecule = "O=C(N[C@H](CO)[C@H](O)c1ccc([N+](=O)[O-])cc1)C(Cl)Cl"
property_label = "antimicrobial susceptibility"
reported = "S"

[[record]]
molecule = "NC[C@H]1O[C@H](O[C@H]2[C@H](O)[C@@H](O[C@H]3O[C@H](CO)[C@@H](O)[C@H](N)[C@H]3O)[C@H](N)C[C@@H]2N)[C@H](O)[C@@H](O)[C@@H]1O"
property_label = "antimicrobial susceptibility"
reported = "S"

[[record]]
molecule = "CC1(C)S[C@@H]2[C@H](NC(=O)[C@H](N)c3ccccc3)C(=O)N2[C@H]1C(=O)O"
property_label = "antimicrobial susceptibility"
reported = "R"

[[record]]
molecule = "CNC(C)C1CCC(N)C(OC2C(N)CC(N)C(OC3OCC(C)(O)C(NC)C3O)C2O)O1 (stereo not shown)"
property_label = "antimicrobial susceptibility"
reported = "I"


###

System: P. aeruginosa biofilm
procedure-summary: Checkerboard synergy of D-LL-31 with antibiotics on biofilm
Type: cell-based, Pseudomonas aeruginosa
condition-label: Pseudomonas aeruginosa, 24 h; read-out: Antimicrobial agent in concentration of combination
property-label: pIC50
To interpret pIC50, take it as minus log10 of a concentration measured in moles per litre.

Value lookup for pIC50; key = CC1(C)S[C@@H]2[C@H](NC(=O)[C@H](N)c3ccc(O)cc3)C(=O)N2[C@H]1C(=O)O [AMX, amoxicillin]
2.55

###

System: K. pneumoniae
procedure-summary: Disc antimicrobial susceptibility test (BD BBL Sensi-Disc)
Type: cell-based, Klebsiella pneumoniae
Parameters: key: Susceptible; Intermediate; Resistant
condition-label: 24 h
property-label: antimicrobial susceptibility

[[record]]
compound = "CO/N=C(\\C(=O)N[C@@H]1C(=O)N2C(C(=O)O)=C(CSc3nc(=O)c(=O)[nH]n3C)CS[C@H]12)c1csc(N)n1 [CRO, Ceftriaxone]"
property_label = "antimicrobial susceptibility"
reported = "S"

[[record]]
compound = "NC[C@H]1O[C@H](O[C@H]2[C@H](O)[C@@H](O[C@H]3O[C@H](CO)[C@@H](O)[C@H](N)[C@H]3O)[C@H](N)C[C@@H]2N)[C@H](N)C[C@@H]1O [TOB, tobramycin]"
property_label = "antimicrobial susceptibility"
reported = "S"

[[record]]
compound = "CN(C)[C@@H]1C(O)=C(C(N)=O)C(=O)[C@@]2(O)C(O)=C3C(=O)c4c(O)cccc4[C@@](C)(O)[C@H]3C[C@@H]12 [TET, Tetracycline]"
property_label = "antimicrobial susceptibility"
reported = "I"


###

System: P. aeruginosa
procedure-summary: Disc antimicrobial susceptibility test (BD BBL Sensi-Disc)
Format: cell-based, Pseudomonas aeruginosa
Parameters: key: Susceptible; Intermediate; Resistant
condition-label: 24 h
property-label: antimicrobial susceptibility

Worked examples, 4 compounds total:
[[record]]
compound = "NC[C@H]1O[C@H](O[C@H]2[C@H](O)[C@@H](O[C@H]3O[C@H](CO)[C@@H](O)[C@H](N)[C@H]3O)[C@H](N)C[C@@H]2N)[C@H](N)C[C@@H]1O"
property_label = "antimicrobial susceptibility"
reported = "S"

[[record]]
compound = "CNC(C)C1CCC(N)C(OC2C(N)CC(N)C(OC3OCC(C)(O)C(NC)C3O)C2O)O1 (centres unmarked)"
property_label = "antimicrobial susceptibility"
reported = "I"

[[record]]
compound = "O=C(N[C@H](CO)[C@H](O)c1ccc([N+](=O)[O-])cc1)C(Cl)Cl"
property_label = "antimicrobial susceptibility"
reported = "R"

[[record]]
compound = "CN(C)[C@@H]1C(O)=C(C(N)=O)C(=O)[C@@]2(O)C(O)=C3C(=O)c4c(O)cccc4[C@@](C)(O)[C@H]3C[C@@H]12"
property_label = "antimicrobial susceptibility"
reported = "R"


// moving on: another record for antimicrobial susceptibility
Need antimicrobial susceptibility, item CO/N=C(\C(=O)N[C@@H]1C(=O)N2C(C(=O)O)=C(CSc3nc(=O)c(=O)[nH]n3C)CS[C@H]12)c1csc(N)n1
R

###

Tested on: K. pneumoniae biofilm
procedure-summary: microbe, parasite or virus in culture
condition-label: biofilm, 24 h
Ends that are not written are not given here.
property-label: IC50 (nM)
State just the number; it will be interpreted in nM.

Returns the measured IC50 for the input sequence. Input: LLGDFFRKSKEKIGKEFKRIVQRIKDFLRNL [LL-31]
700

###

Test system: P. aeruginosa biofilm
procedure-summary: microbe, parasite or virus in culture
condition-label: biofilm, 24 h
Ends that are not written are not given here.
property-label: IC50 (µM)
Kindly provide the numeric value in µM only, without the unit symbol.

Name the reported IC50 value associated with the sequence LLGDFFRKSKEKIGKEFKRIVQRIKDFLRNL [LL-31]
5.3
